molecular target: human IDO1 (Homo sapiens); construct: expressed in transfected cells; experiment: HEK293 human IDO1 cell-based IDO inhibition assay; settings: read-out: HEK Human IDO-1 Potency
Sequence (P14902 whole entry): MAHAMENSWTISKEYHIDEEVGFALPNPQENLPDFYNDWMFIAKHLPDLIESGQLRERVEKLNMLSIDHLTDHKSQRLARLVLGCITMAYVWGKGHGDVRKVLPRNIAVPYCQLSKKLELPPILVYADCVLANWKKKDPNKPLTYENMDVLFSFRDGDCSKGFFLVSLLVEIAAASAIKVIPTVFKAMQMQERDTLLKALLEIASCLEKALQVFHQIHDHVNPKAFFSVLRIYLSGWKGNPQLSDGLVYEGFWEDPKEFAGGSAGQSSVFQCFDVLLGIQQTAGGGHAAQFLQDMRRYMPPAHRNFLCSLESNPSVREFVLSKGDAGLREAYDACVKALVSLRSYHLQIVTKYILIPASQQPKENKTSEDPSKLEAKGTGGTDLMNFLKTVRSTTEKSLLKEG
Readout Name: IC50

Sample records with IC50:
- Compound: "C[C@@H](C(=O)Nc1ccc2c(c1)OC(F)(F)O2)[C@H]1CC[C@@H](c2ccnc3ccc(F)cc32)CC1"
  IC50: "< 50 nM"
- Compound: "CC(C(=O)Nc1ccc(Cl)cc1)N1CCN(c2ccnc3ccc(F)cc23)CC1 (racemic) [Example 126]"
  IC50: "> 250 nM"
- Compound: "C[C@@H](C(=O)Nc1ccccc1F)[C@H]1CC[C@@H](c2ccnc3ccc(F)cc32)CC1"
  IC50: "< 50 nM"

Per the record, CCC(C(=O)Nc1ccc(Cl)cc1)[C@H]1CC[C@H](Oc2ccnc3ccccc23)CC1 (mixture of isomers) has IC50 of < 50 nM

---

compounds and their reported pIC50
biological target: human IDO1 (Homo sapiens); construct: expressed in transfected cells; assay: HEK293 human IDO1 cell-based IDO inhibition assay; conditions: read-out: HEK Human IDO-1 Potency
pIC50: −log10 of the molar value.

- Compound: "C[C@@H](C(=O)Nc1ccc(C(F)(F)F)c(C#N)c1)[C@H]1CC[C@@H](c2ccnc3ccc(F)cc32)CC1 [Example 82]"
  pIC50: "> 6.60"
- Compound: "CC(C(=O)Nc1ccc(F)cc1)N1CCC(Oc2ccnc3ccc(F)cc23)CC1 (single isomer, unassigned) [compound 105]"
  pIC50: "> 7.30"
- Compound: "C[C@H](C(=O)Nc1ccc(Cl)cc1)[C@H]1CC[C@@H](c2ccnc3cn[nH]c32)CC1 (single isomer, unassigned) [Example 150a]"
  pIC50: "> 7.30"
- Compound: "CC(C(=O)Nc1ccc(Cl)cc1)N1CCC(Oc2ccc3nccc(Cl)c3c2)CC1 (single isomer, unassigned) [Example 94]"
  pIC50: "> 6.60"

Measured pIC50, C[C@@H](C(=O)Nc1ccccc1)[C@H]1CC[C@@H](c2ccnc3ccc(F)cc32)CC1 [Example 58] : > 7.30
